Tested on: FB
Experiment: Euclidean distance of Cell Painting phenotypic profile (signed KS, 77 features) to DMSO centroid (dimensionless distance); 5 or 10 uM (library dependent); higher = stronger phenotypic change vs DMSO (phenoactivity)
Conditions: 48 h
Structures can show the parent of a compound that is named as a salt.
Parameter: Euclidean distance. Scope: all listed entries.
// return a plain number; no unit text

In the examples that follow, each entry is paired with its recorded Euclidean distance.
> print(dat)
                                   molecule    measurement.type  recorded.result
1  CN(C)Cc1cccc(N=C(c2ccccc2)c2c(O)[nH]c3cc(C(=O)N(C)C)ccc23)c1  Euclidean distance             3.16
2  CN1C2CCCC1CC(NC(=O)c1nn(C)c3ccccc13)C2 (stereo not drawn) [Granisetron HCl]  Euclidean distance             1.04
3  COc1cc2/c(=N/c3ccc(Br)cc3F)nc[nH]c2cc1OCC1CCN(C)CC1 [Vandetanib (ZD6474)]  Euclidean distance             2.66
4  Fc1ccc([C@@H]2CCNC[C@H]2COc2ccc3c(c2)OCO3)cc1 [Paroxetine HCl]  Euclidean distance             1.93
5  O=C1N=C(O)NC1(c1ccccc1)c1ccccc1 [Phenytoin Sodium]  Euclidean distance             0.99

## Task Provide value of Euclidean distance for this record tested with FB: O=C(NC(NC(=S)Nc1ccc(F)c([N+](=O)[O-])c1)C(Cl)(Cl)Cl)C(c1ccccc1)c1ccccc1 (stereo not drawn)
## Result 1.49

## Task Further, for CCCCc1oc2ccccc2c1C(=O)c1cc(I)c(OCCN(CC)CC)c(I)c1 [Amiodarone HCl] ?
## Result 1.95

## Task Another: CN1CCN(C2=Nc3ccccc3Oc3ccc(Cl)cc32)CC1 [Loxapine Succinate]
## Result 0.885

## Task Now the molecule `O=C(Cc1cccc(OC(F)(F)F)c1)Nc1ccc(CCCCc2nnc(NC(=O)Cc3ccccn3)s2)nn1`
## Result 3.38

## Task Also need `O=C(NCCCNc1nc(Nc2cccc(NC(=O)N3CCCC3)c2)ncc1I)c1cccs1` , thanks.
## Result 3.8

## Task Another molecule to look at: `c1ccc2[nH]c(-c3cscn3)nc2c1`
## Result 1.1

====

Tested on: OVCAR4
Assay: Euclidean distance of Cell Painting phenotypic profile (signed KS, 77 features) to DMSO centroid (dimensionless distance); 5 or 10 uM (library dependent); higher = stronger phenotypic change vs DMSO (phenoactivity)
Details: 48 h
Counter-ions that a name gives are not always drawn.
Listing: Euclidean distance of selected compounds
Form: value (number only, do not type unit).

These recorded examples may help you get a feel for the data.
> print(dat)
                                   compound  recorded.result
1  CC(=O)OCC1=C(C(=O)O)N2C(=O)[C@@H](NC(=O)Cc3cccs3)[C@H]2SC1             1.23
2     CNC(CC(=O)O)C(=O)O (stereo not given)            0.706
3   COc1cc(O)c2c(c1)C(=O)c1cc(C)cc(O)c1C2=O             1.29
4  C[C@H]1c2cccc(O)c2C(=O)C2=C(O)[C@]3(O)C(=O)C(C(N)=O)=C(O)[C@@H](N(C)C)[C@@H]3[C@@H](O)[C@@H]21 [Doxycycline]             1.67

## Task I am curious: what Euclidean distance value has been reported for Cc1cc(C)nc(NS(=O)(=O)c2ccc(N)cc2)n1 [Sulfamethazine Sodium Salt] ?
## Result 1.38
